Tested on: L1210 leukemia ip in BDF1 mice, survival T/C
Assay: NCI In Vivo Anticancer Drug Screen. Data for tumor model L1210 Leukemia (intraperitoneal) in B6D2F1 (BDF1) mice
Conditions: endpoint: mean survival time; dose: 75.0 mg/kg/injection; schedule: Q01DX001 (ip); vehicle: saline; higher = longer survival
Toxic doses and inconclusive results are not listed.
Task for the reader: assign each of the following compounds its reported T/C.

Examples with answers:
[
  {
    "compound": "CS(=O)(=O)Nc1ccccc1OS(C)(=O)=O",
    "T/C": "102 % of control"
  },
  {
    "compound": "COC(=O)c1ccc2ccccc2n1",
    "T/C": "112 % of control"
  },
  {
    "compound": "O=S1(=O)C2CCCC1CCC2",
    "T/C": "109 % of control"
  },
  {
    "compound": "O=Nc1ccc(C=C2C(=O)C=CC2=O)cc1",
    "T/C": "100 % of control"
  },
  {
    "compound": "CCCCc1c(O)nc(NCCCC(N)C(=O)O)[nH]c1=O (stereo not drawn)",
    "T/C": "93 % of control"
  },
  {
    "compound": "CC1=N/C(=N\\c2nc3ccccc3[nH]2)NC(=O)CC1",
    "T/C": "101 % of control"
  },
  {
    "compound": "C1=C(N2CCCCC2)C2CCC1C2 (stereo not drawn)",
    "T/C": "99 % of control"
  },
  {
    "compound": "Cc1nc(N)sc1N=Nc1cccc(Cl)c1Cl",
    "T/C": "88 % of control"
  },
  {
    "compound": "CCN(CC)CCCNC(c1ccc(OC)c(OC)c1)C(Cl)(Cl)Cl (stereo not drawn)",
    "T/C": "98 % of control"
  },
  {
    "compound": "CCOC(=O)/C(C#N)=C(\\C)CCc1ccccc1",
    "T/C": "104 % of control"
  }
]

Report T/C for every entry below.
1. C[N+](C)(C)C12CCCCC1S(=O)(=O)C2 (stereo not drawn)
2. C[N+](C)(C)c1ccccn1
3. Cc1ccc(S(=O)(=O)CN2CCC(=O)c3ccccc32)cc1

result:
1: 108 % of control; 2: 102 % of control; 3: 104 % of control

----------
Test system: L1210 leukemia ip in BDF1 mice, survival T/C
Assay: NCI In Vivo Anticancer Drug Screen. Data for tumor model L1210 Leukemia (intraperitoneal) in B6D2F1 (BDF1) mice
Conditions: endpoint: mean survival time; dose: 50.0 mg/kg/injection; schedule: Q04DX003 (ip); vehicle: saline with Tween-80; higher = longer survival
Toxic doses and inconclusive results are not listed.
Hi there, I'd appreciate the recorded T/C for every entry that follows.

Please review the following examples before continuing.
[
  {
    "compound": "COc1cccc(C(=O)C=C(C(F)(F)F)C(F)(F)F)c1",
    "T/C": "97 % of control"
  },
  {
    "compound": "CC(=O)CCC(=O)OC(C)(C)CN",
    "T/C": "99 % of control"
  },
  {
    "compound": "BrCOCCCCOCBr",
    "T/C": "110 % of control"
  }
]

Could you report T/C for every entry in the following list?
1. O=C(O)CC(Br)C(=O)c1ccccc1 (stereo not drawn)
2. O=C1NC(=S)S/C1=C\c1ccc(F)cc1
3. OC1CC[N-]CC1.OC1CC[N-]CC1.[Cl][Pt+2]([Cl])([Cl])[Cl]
4. CNC(=O)Oc1ccccc1NC(=O)OC
5. CCSC(SCC)C(OC(C)=O)C(OC(C)=O)C(OC(C)=O)C(CNC(C)=O)OC(C)=O (stereo not drawn)
6. c1cc2c3c(c1)nc(CCc1nc4cccc5c4n1CCC5)n3CCC2

result:
1: 104 % of control; 2: 103 % of control; 3: 107 % of control; 4: 95 % of control; 5: 94 % of control; 6: 95 % of control

----------
Test system: L1210 leukemia ip in BDF1 mice, survival T/C
Test: NCI In Vivo Anticancer Drug Screen. Data for tumor model L1210 Leukemia (intraperitoneal) in B6D2F1 (BDF1) mice
Conditions: endpoint: mean survival time; dose: 100.0 mg/kg/injection; schedule: Q01DX001 (ip); vehicle: carboxymethylcellulose (CMC)
Inconclusive results and toxic doses are left out. No stated cut-off is given here; in the data, active means T/C of 150% or more; inactive means T/C below 125%.
Answer with one of the outcomes given here: class 1 (active), class 0 (inactive)

The following molecules have reported results that may help.
[
  {
    "molecule": "COC(=O)Cc1c(C(=O)OC)c(O)cc(O)c1C(=O)OC",
    "study.system": "L1210 leukemia ip in BDF1 mice, survival T/C",
    "class.assignment": "class 0"
  },
  {
    "molecule": "CN(C)c1ccc(N=Nc2cc(Cl)cc(Cl)c2)cc1",
    "study.system": "L1210 leukemia ip in BDF1 mice, survival T/C",
    "class.assignment": "class 0"
  },
  {
    "molecule": "Cc1nc(N)nc(N)c1-c1ccccc1",
    "study.system": "L1210 leukemia ip in BDF1 mice, survival T/C",
    "class.assignment": "class 0"
  },
  {
    "molecule": "Cc1ccc(Br)c([N+](=O)[O-])c1",
    "study.system": "L1210 leukemia ip in BDF1 mice, survival T/C",
    "class.assignment": "class 0"
  }
]

Shift focus to the following entry.
query: Assay outcome for "O=C(O)/C=C/c1cccc(Br)c1" : what was it?
result: class 0

----------
Tested on: L1210 leukemia ip in BDF1 mice, survival T/C
Experiment: NCI In Vivo Anticancer Drug Screen. Data for tumor model L1210 Leukemia (intraperitoneal) in B6D2F1 (BDF1) mice
Details: endpoint: mean survival time; dose: 200.0 mg/kg/injection; schedule: Q01DX001 (ip); vehicle: Klucel (hydroxypropylcellulose) (HPC); higher = longer survival
Description: The antitumor activity of compounds was measured in mice bearing transplantable tumors. Survival or tumor size were measured and the results are expressed as the measurement made in the treated group (T) divided by the measurement made in the vehicle treated control group (C). The tumor model used in this assay is L1210 Leukemia (intraperitoneal) in B6D2F1 (BDF1) mice
Inconclusive results and toxic doses are left out.
Could you please report measured T/C for the items listed next?

Before answering, review these 8 worked examples.
[
  {
    "compound": "COC(=O)C1CC(=O)c2c(O)ccc(O)c2C1 (stereo unspecified)",
    "T/C": "92 % of control"
  },
  {
    "compound": "O=C(O)c1sccc1-c1cccc2ccccc12",
    "T/C": "94 % of control"
  },
  {
    "compound": "CCn1c(C)nc2cc(S(=O)(=O)C(F)(F)C(F)Cl)ccc21 (stereo unspecified)",
    "T/C": "97 % of control"
  },
  {
    "compound": "O=C(O)/C=C\\Cc1cccc(=O)[nH]1",
    "T/C": "97 % of control"
  },
  {
    "compound": "O=c1[nH]c(Cc2ccc([N+](=O)[O-])cc2)c(Br)c(=O)[nH]1",
    "T/C": "92 % of control"
  },
  {
    "compound": "NC(=S)NNC(=O)CN1C(=O)c2ccccc2C1=O",
    "T/C": "105 % of control"
  },
  {
    "compound": "c1ccc(Nc2ccc(Nc3ccccc3)cc2)cc1",
    "T/C": "94 % of control"
  },
  {
    "compound": "CC1=CC(=N\\S(=O)(=O)c2ccccc2)/C2(Cl)CC(C)=C(C)CC2/C1=N/S(=O)(=O)c1ccccc1 (stereo unspecified)",
    "T/C": "103 % of control"
  }
]

Provide T/C values for the following items, in order.
1. CC(C)(C)c1ccc(OS(=O)(=O)c2ccccc2[N+](=O)[O-])cc1
2. CCOC(=O)C1(C(=O)OCC)CC(=O)c2c(OC)ccc(OC)c2C1
3. Cn1[nH]c(NC=O)c2cc3c(=O)[nH]c(=O)cc3nc21

result:
98 % of control
98 % of control
90 % of control

----------
Tested on: L1210 leukemia ip in BDF1 mice, survival T/C
Assay: NCI In Vivo Anticancer Drug Screen. Data for tumor model L1210 Leukemia (intraperitoneal) in B6D2F1 (BDF1) mice
Conditions: endpoint: mean survival time; dose: 100.0 mg/kg/injection; schedule: Q01DX001 (ip); vehicle: Klucel (hydroxypropylcellulose) (HPC); higher = longer survival
Inconclusive results and toxic doses are left out.
measured.endpoint: T/C

[
  {
    "molecule": "CC(=O)Nc1ccc(/C=C/C(=O)c2ccc(C)cc2)cc1",
    "T/C": "101 % of control"
  },
  {
    "molecule": "COc1ccc(/C=C2/N=C(C)OC2=O)cc1",
    "T/C": "92 % of control"
  },
  {
    "molecule": "CCOC(=S)c1ccc(S(=O)(=O)Nc2ccc(OCC)cc2)cc1",
    "T/C": "95 % of control"
  },
  {
    "molecule": "CC(=O)Nc1[nH]ncc1C(N)=O",
    "T/C": "100 % of control"
  },
  {
    "molecule": "CC(=O)OC1([N+](=O)[O-])c2ccccc2C2CC1c1ccccc12 (stereo not given)",
    "T/C": "91 % of control"
  },
  {
    "molecule": "CC(NC(=O)NCCCl)C1CC1 (stereo not given)",
    "T/C": "106 % of control"
  },
  {
    "molecule": "NC(=S)NNC(=O)CN1C(=O)c2ccccc2C1=O",
    "T/C": "102 % of control"
  },
  {
    "molecule": "CC(C)(C)OC(=O)C1(C(=O)OC(C)(C)C)C2CCCCC21 (stereo not given)",
    "T/C": "95 % of control"
  },
  {
    "molecule": "CN1CCC(OC(=O)C(C)(O)C#Cc2ccccc2)CC1 (stereo not given)",
    "T/C": "97 % of control"
  },
  {
    "molecule": "CN(C)C1C=CS(=O)(=O)C1 (stereo not given)",
    "T/C": "106 % of control"
  }
]

List reported T/C for each of these molecules:
1. COc1cc(C)c2c(c1)C(=O)OC2=O
2. CCCCCNc1ccnc(=O)[nH]1
3. CC1(C)CS(=O)(=O)CC(C)(C)C(=O)C1=O
4. COC(=O)C1C2C=CC(C2=C(c2ccccc2)c2ccccc2)C1C(=O)OC (stereo not given)

result:
["105 % of control", "94 % of control", "108 % of control", "98 % of control"]

For every item below, please supply its T/C.
1. CC(C)(C)c1ccc(OS(=O)(=O)c2ccccc2[N+](=O)[O-])cc1
2. O=c1cc(CCCCCc2ccccc2)[nH]c(=O)[nH]1
3. N#CC(C#N)=C1CCC(=C(C#N)C#N)CC1
4. COc1ccc([N+](=O)[O-])cc1NC(=O)Nc1cc(C)on1

result:
1: 102 % of control; 2: 97 % of control; 3: 105 % of control; 4: 91 % of control

Provide reported T/C for each item, in the same order as listed.
1. CC1C=CC=CC=C1
2. Cc1ccc(NC(=O)COc2ccc(Cl)cc2)c(C)c1
3. CCOC(=O)c1[nH]c(=O)nc(N)c1Oc1ccccc1
4. CCOC(=O)C1(C(=O)OCC)CC(=O)c2c(OC)ccc(OC)c2C1

result:
1. 98 % of control
2. 99 % of control
3. 92 % of control
4. 98 % of control

For each listed entry, give its T/C.
1. Cc1cc(C)c(S(=O)(=O)C(=O)C(=O)NN)c(C)c1
2. CN1C(=O)C2C3C=CC(C3)C2C1=O (stereo not given)
3. Nc1nc2nnc(CNc3ccc(C(=O)NC(CCC(=O)O)C(=O)O)cc3)nc2c(=O)[nH]1 (stereo not given)
4. CC1(CCCOc2ccccc2C(=O)NCBr)N=C(N)N=C(N)N1c1ccccc1 (stereo not given)
5. Cn1[nH]c(NC=O)c2cc3c(=O)[nH]c(=O)cc3nc21
6. CC1Oc2ccccc2OC1NC1=NCCO1 (stereo not given)
7. O=C1NC(=O)C(c2ccccc2Cl)N1 (stereo not given)

result:
1: 104 % of control; 2: 97 % of control; 3: 94 % of control; 4: 104 % of control; 5: 93 % of control; 6: 97 % of control; 7: 109 % of control

query: Need T/C, item "Nc1ccc(C2=NCCO2)cc1"
result: 92 % of control

Every entry's value here was drawn from PubChem BioAssay AID248.
